Target: TvaCA1 (Trichomonas vaginalis, UniProt A2ENQ8)
Construct: gene TVAG_005270; recombinant from E. coli BL21 Star (DE3), Ni2+-NTA purified; beta-CA homodimer with two active sites
Sequence (A2ENQ8 1-182): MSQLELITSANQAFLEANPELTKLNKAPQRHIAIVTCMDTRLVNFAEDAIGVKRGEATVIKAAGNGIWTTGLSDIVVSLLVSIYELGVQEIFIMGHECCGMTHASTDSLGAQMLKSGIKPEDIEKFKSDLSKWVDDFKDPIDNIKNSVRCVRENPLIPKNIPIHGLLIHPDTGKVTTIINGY
Assay: stopped-flow CO2 hydrase assay
Assay type: biochemical
Conditions: read-out: KI^a (nM) / TvaCA1^c
Threshold 4000 nM: Ki strictly smaller gives Fulfilled, otherwise Not fulfilled.

| compound | classLabel |
| --- | --- |
| Nc1cccc(S(N)(=O)=O)c1 | Fulfilled |
| Nc1ccc(S(N)(=O)=O)cc1 | Not fulfilled |
| NS(=O)(=O)c1ccc(O)cc1 | Fulfilled |
| Nc1ccc(S(N)(=O)=O)cc1F | Not fulfilled |
| Nc1nccc(Nc2ccc(S(N)(=O)=O)cc2)n1 | Not fulfilled |

Please turn your attention to the following entry.
Query: Consider the compound CC(=O)N=c1sc(S(N)(=O)=O)nn1C [MZA, methazolamide] . Is its Ki strictly less than 4000 nM?
Response: Fulfilled
